ASSAY_METHOD_TEXT: Microsomal stability in human liver microsomes
Type: in vitro ADME
CONDITION_CONTEXT: NADPH, 37° C.
Experimental: Frozen Sprague-Dawley rat liver microsomes (RLM) were thawed on ice and gently mixed before use. […] The drawn samples were quenched with acetonitrile, diluted with mobile phase to ensure the detection of test article in the linear range, and analyzed by LC/MS/MS. Half-life or percentage of remaining nitrone compound was calculated using standard methods. […]
METRIC: % of Nitrone Remaining at 30 min (Human) (%)

smiles_str=CC(C)(C)/[N+]([O-])=C/c1cccnc1S(C)(=O)=O metric="% of Nitrone Remaining at 30 min (Human)" unit_info=% data_value=100
smiles_str=CS(=O)(=O)c1ncccc1/C=[N+](\[O-])Cc1ccccc1 metric="% of Nitrone Remaining at 30 min (Human)" unit_info=% data_value=95.1
smiles_str=CN(c1ccccc1)S(=O)(=O)c1ccc(/C=[N+](\[O-])C2CCCCC2)cc1 metric="% of Nitrone Remaining at 30 min (Human)" unit_info=% data_value=33

[I] CN(c1ccccc1)S(=O)(=O)c1ccccc1/C=[N+](\[O-])C(C)(C)C
[II] CCN(CC)S(=O)(=O)c1ccc(/C=[N+](\[O-])C(C)C)cc1
Q. Consider entries I and II . Which has the numerically lower % of Nitrone Remaining at 30 min (Human)? Choose, then provide that item's label.
A. I

----------
ASSAY_METHOD_TEXT: Solubility measurement at pH 7.4
Format: physicochemical
CONDITION_CONTEXT: aqueous buffer, thermodynamic from solid; phosphate buffer pH 7.4, room temperature; read-out: Solubility @ pH 7.4 (μg/mL)
METRIC: solubility (µg/mL)

smiles_str=O=S(=O)(c1ccccc1/C=[N+](\[O-])Cc1ccccc1)N1CCOCC1 data_value=1810
smiles_str=CCN(CC)S(=O)(=O)c1ccccc1/C=[N+](\[O-])C(C)(C)C data_value=791
smiles_str=CC(C)(C)/[N+]([O-])=C/c1ccccc1S(=O)(=O)N1CCCc2ccccc21 data_value=58.1

[a] CCN(CC)S(=O)(=O)c1ccccc1/C=[N+](\[O-])C1CCCCC1
[b] O=S(=O)(c1ccccc1/C=[N+](\[O-])C1CCCCC1)N1CCOCC1
Q. Recorded solubility values differ for a and b ; which one is higher? Choose, then provide that item's label.
A. a
(a: 978 µg/mL, b: 206 µg/mL)

----------
ASSAY_METHOD_TEXT: Pharmacokinetic evaluation following intravenous and oral administration in rats
Assay type: in vivo
CONDITION_CONTEXT: male, Sprague-Dawley, plasma, 5 mg/kg; rat; po 2 mg/mL at 2.5 mL/kg vs iv 1 mg/mL at 1.0 mL/kg, dose-normalized; read-out: F (%) oral bioavailability
METRIC: bioavailability (%)

Would you please look over these solved cases?
smiles_str=CC(C)(C)/[N+]([O-])=C/c1ccc(C(F)(F)F)cc1S(C)(=O)=O metric=bioavailability unit_info=% data_value=59.8
smiles_str=CC(C)(C)/[N+]([O-])=C/c1ccc(S(C)(=O)=O)cc1 metric=bioavailability unit_info=% data_value=63.4
smiles_str=CC(C)(C)/[N+]([O-])=C/c1ccc(S(=O)(=O)N2CCCC2)cc1 metric=bioavailability unit_info=% data_value=4.3
smiles_str=CC(C)(C)NS(=O)(=O)c1ccc(/C=[N+](\[O-])C2CCCCC2)cc1 metric=bioavailability unit_info=% data_value=0.4

[A] CCNS(=O)(=O)c1ccc(/C=[N+](\[O-])C(C)(C)C)cc1
[B] CC(C)S(=O)(=O)c1ccc(/C=[N+](\[O-])C(C)(C)C)c(S(=O)(=O)C(C)C)c1
Q. Recorded bioavailability values differ for A and B ; which one is higher? Choose, then provide that item's label.
A. B
(B: 13.7%, A: 7.19%)

[I] CC(C)(C)/[N+]([O-])=C/c1ccc(S(=O)(=O)C2CCCC2)cc1
[II] CC(C)(C)/[N+]([O-])=C/c1ccc(S(N)(=O)=O)cc1
[III] CCS(=O)(=O)c1ccc(/C=[N+](\[O-])C(C)(C)C)c(S(=O)(=O)CC)c1
[IV] CC(C)(C)/[N+]([O-])=C/c1ccccc1S(=O)(=O)N1CCCCC1
Q. List the 4 entries from lowest bioavailability to highest bioavailability value. Please list each label once, in the requested order.
A. IV, I, II, III
(IV: 0.1%, I: 5.87%, II: 55.4%, III: 91.3%)

[1] CC(C)(C)/[N+]([O-])=C/c1ccc(S(C)(=O)=O)cc1S(C)(=O)=O
[2] CC(C)(C)/[N+]([O-])=C/c1ccc(C(N)=O)cc1
Q. Consider entries 1 and 2 . Which has the numerically lower bioavailability? Choose, then provide that item's label.
A. 2

----------
Tested on: CCI rats
ASSAY_METHOD_TEXT: Mechanical allodynia in mononeuropathic pain model (chronic constrictive injury, CCI, Bennett model)
Assay type: in vivo, SD rats
CONDITION_CONTEXT: post-dosing time −15 min (pre-dose), 50 mg/kg p.o. single dose, mean ± SEM
METRIC: PWT ipsilateral hind paw (von Frey) (gm)
Reply with just the number (in gm).

Would you please look over these solved cases?
molecule=CC(C)(C)/[N+]([O-])=C/c1ccc(S(=O)(=O)N2CCOCC2)cc1 target_of_assay="CCI rats" data_value=2.43
molecule="CC1(C)CC(O)CC(C)(C)N1[O] [TEMPOL, 4-hydroxy-tempol, reference compound]" target_of_assay="CCI rats" data_value=4.00
molecule=CC(C)(C)/[N+]([O-])=C/c1ccc(S(C)(=O)=O)cc1S(C)(=O)=O target_of_assay="CCI rats" data_value=3.88
molecule=CC(C)(C)/[N+]([O-])=C/c1ccc(S(C)(=O)=O)cc1 target_of_assay="CCI rats" data_value=3.17

// next item, PWT ipsilateral hind paw (von Frey) requested
Q. For the molecule shown here, "CC(C)(C)/[N+]([O-])=C/c1ccccc1S(C)(=O)=O" , give the reported PWT ipsilateral hind paw (von Frey).
A. 1.97

----------
ASSAY_METHOD_TEXT: Solubility measurement at pH 7.4
Type: physicochemical
CONDITION_CONTEXT: aqueous buffer, thermodynamic from solid; phosphate buffer pH 7.4, room temperature; read-out: Solubility @ pH 7.4 (μg/mL)
METRIC: solubility (µg/mL)

compound="CN(c1ccccc1)S(=O)(=O)c1ccccc1/C=[N+](\\[O-])C(C)(C)C [Compound 41]" metric=solubility unit_info=µg/mL data_value=143
compound="CC(C)(C)NC(=O)c1ccc(/C=[N+](\\[O-])C(C)(C)C)cc1 [Compound 18]" metric=solubility unit_info=µg/mL data_value=376
compound="O=S(=O)(c1ccccc1/C=[N+](\\[O-])Cc1ccccc1)N1CCCc2ccccc21 [Compound 46]" metric=solubility unit_info=µg/mL data_value=2.14
compound="CC(C)(C)/[N+]([O-])=C/c1ccc(C(=O)O)cc1 [Compound 13, N-tert-Butyl-C-(4-carboxy-phenyl)nitrone]" metric=solubility unit_info=µg/mL data_value=2000

[P] CS(=O)(=O)c1ncccc1/C=[N+](\[O-])Cc1ccccc1 [Compound 75]
[Q] CC(C)(C)/[N+]([O-])=C/c1cc2ccccc2nc1S(C)(=O)=O [Compound 74]
Q. Recorded solubility values differ for P and Q ; which one is higher? Choose, then provide that item's label.
A. P

----------
ASSAY_METHOD_TEXT: Microsomal stability in rat liver microsomes
Type: in vitro ADME
CONDITION_CONTEXT: rat liver microsomes 0.5 mg/ml, 1 mM NADPH, ~500 ng/ml compound, 37° C.
METRIC: % of Nitrone Remaining at 30 min (Rat) (%)

Would you please look over these solved cases?
compound="CC(C)(C)/[N+]([O-])=C/c1ccc(S(C)(=O)=O)cc1S(C)(=O)=O [Compound 63]" metric="% of Nitrone Remaining at 30 min (Rat)" unit_info=% data_value=97
compound="CC(C)(C)/[N+]([O-])=C/c1ccc(S(C)(=O)=O)cc1 [Compound 62]" metric="% of Nitrone Remaining at 30 min (Rat)" unit_info=% data_value=100

[I] CC(C)(C)NC(=O)c1ccc(/C=[N+](\[O-])C(C)(C)C)cc1 [Compound 18]
[II] CCN(CC)S(=O)(=O)c1ccccc1/C=[N+](\[O-])C1CCCCC1 [Compound 31]
[III] CCN(CC)S(=O)(=O)c1ccccc1/C=[N+](\[O-])C(C)(C)C [Compound 30]
Q. List the 3 entries from lowest % of Nitrone Remaining at 30 min (Rat) to highest % of Nitrone Remaining at 30 min (Rat) value. Please list each label once, in the requested order.
A. II, III, I
(II: 0%, III: 7.4%, I: 100%)

----------
ASSAY_METHOD_TEXT: Microsomal stability in human liver microsomes
Type: in vitro ADME
CONDITION_CONTEXT: NADPH, 37° C.
METRIC: % of Nitrone Remaining at 30 min (Human) (%)

Would you please look over these solved cases?
smiles_str=CC(C)S(=O)(=O)c1ccc(/C=[N+](\[O-])C(C)(C)C)c(S(=O)(=O)C(C)C)c1 metric="% of Nitrone Remaining at 30 min (Human)" data_value=94
smiles_str=CC(C)(C)/[N+]([O-])=C/c1ccc(S(C)(=O)=O)cc1 metric="% of Nitrone Remaining at 30 min (Human)" data_value=100

[A] CN1CCN(S(=O)(=O)c2ccccc2/C=[N+](\[O-])C(C)(C)C)CC1
[B] CN1CCN(S(=O)(=O)c2ccccc2/C=[N+](\[O-])C2CCCCC2)CC1
[C] CC(C)(C)/[N+]([O-])=C/c1ccccc1S(=O)(=O)N1CCCc2ccccc21
[D] CN1CCN(S(=O)(=O)c2ccccc2/C=[N+](\[O-])Cc2ccccc2)CC1
Q. List the 4 entries from lowest % of Nitrone Remaining at 30 min (Human) to highest % of Nitrone Remaining at 30 min (Human) value. Please list each label once, in the requested order.
A. C, D, B, A
